# Assayed system: N-formyl peptide receptor 2 (Homo sapiens, UniProt P25090)
# Sequence (P25090 whole entry): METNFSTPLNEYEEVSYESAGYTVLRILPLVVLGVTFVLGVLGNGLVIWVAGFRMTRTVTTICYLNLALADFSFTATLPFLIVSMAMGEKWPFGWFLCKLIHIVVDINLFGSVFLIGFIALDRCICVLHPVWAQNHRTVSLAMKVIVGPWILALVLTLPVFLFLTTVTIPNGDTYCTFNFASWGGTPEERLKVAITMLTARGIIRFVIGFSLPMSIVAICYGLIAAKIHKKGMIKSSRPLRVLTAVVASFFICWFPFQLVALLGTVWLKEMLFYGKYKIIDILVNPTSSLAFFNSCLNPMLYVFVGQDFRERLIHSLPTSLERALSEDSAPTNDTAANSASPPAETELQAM
# Method: Agonist activity at human FPR2 transfected in human HL-60 cells assessed as increase in calcium mobilization measured every 5 seconds for 240 secs by Fluo-4-AM dye based fluorescence assay
pEC50: −log10 of the molar value.
Binary call on pEC50: 1 from 6 upward, -1 beneath that.

CC1(C)CN(C(=O)[C@@H](Cc2ccc(C#N)cc2)NC(=O)Nc2ccc(F)cc2)c2ccccc21 : -1
N#Cc1ccc(C[C@@H](NC(=O)Nc2ccc(F)cc2)C(=O)N2CCCc3ccccc32)cc1 : 1
N#Cc1ccc(C[C@@H](NC(=O)Nc2ccc(F)cc2)C(=O)N2Cc3ccc(F)cc3C2)cc1 : -1

Q) Determine whether this compound has pEC50 no lower than 6: `N#Cc1ccc(C[C@H](NC(=O)Nc2ccc(F)cc2)C(=O)N2CCc3cc(F)ccc32)cc1`
A) 1

Q) Determine whether this compound has pEC50 no lower than 6: `N#Cc1ccc(C[C@@H](NC(=O)Nc2ccc(F)cc2)C(=O)N2CCc3ccccc32)cc1`
A) -1

Q) Determine whether this compound has pEC50 no lower than 6: `N#Cc1ccc(C[C@@H](NC(=O)Nc2ccc(F)cc2)C(=O)N2CCCCC2)cc1`
A) -1

Q) Determine whether this compound has pEC50 no lower than 6: `N#Cc1ccc(C[C@@H](NC(=O)Nc2ccc(F)cc2)C(=O)N2Cc3ccccc3C2)cc1`
A) -1

Q) Determine whether this compound has pEC50 no lower than 6: `N#Cc1ccc(C[C@H](NC(=O)Nc2ccc(F)cc2)C(=O)N2CCCC2)cc1`
A) -1

Q) Determine whether this compound has pEC50 no lower than 6: `N#Cc1ccc(C[C@H](NC(=O)Nc2ccc(F)cc2)C(=O)N2Cc3ccc(F)cc3C2)cc1`
A) -1

Q) Determine whether this compound has pEC50 no lower than 6: `N#Cc1ccc(C[C@H](NC(=O)Nc2ccc(F)cc2)C(=O)N2CCc3cccnc32)cc1`
A) 1

Q) Determine whether this compound has pEC50 no lower than 6: `CC1(C)CN(C(=O)[C@H](Cc2ccc(C#N)cc2)NC(=O)Nc2ccc(F)cc2)Cc2cc(F)ccc21`
A) -1

Q) Determine whether this compound has pEC50 no lower than 6: `N#Cc1ccc(C[C@H](NC(=O)Nc2ccc(F)cc2)C(=O)N2CCc3ccccc32)cc1`
A) 1

Q) Determine whether this compound has pEC50 no lower than 6: `N#Cc1ccc(C[C@@H](NC(=O)Nc2ccc(F)cc2)C(=O)N2CCCC2)cc1`
A) -1
